Test system: SK-OV-3
Assay: NCI tumour cell line growth inhibition, 48 h
Active and inactive are the calls of the source. Rule as the data show it: active = GI50 up to about 1.1 µM and inactive = higher.
measured property: GI50

Before answering, review these 4 worked examples.
[
  {
    "molecule": "COc1ccccc1/C=C(\\NC(=O)c1ccccc1)c1nc2ccc(Cl)cc2[nH]1",
    "GI50": "37.2 µM (inactive)"
  },
  {
    "molecule": "CC(C)NCC(O)c1ccc(OCc2ccccc2)c(OCc2ccccc2)c1-c1ccccc1 (stereo not given)",
    "GI50": "1.67 µM (inactive)"
  },
  {
    "molecule": "COC(=O)C(COC(=O)/C=C/c1ccc(OC(C)=O)c(OC(C)=O)c1)NC(=O)/C=C/c1ccc(OC(C)=O)c(OC(C)=O)c1 (stereo not given)",
    "GI50": "67 µM (inactive)"
  },
  {
    "molecule": "CC12CP(=O)(O)CC1C2(Cl)Cl (stereo not given)",
    "GI50": "> 100 µM (inactive)"
  }
]

Read the next record carefully.
Param item: CCNCC(=O)O[C@]1(CC)C(=O)OCc2c1cc1n(c2=O)Cc2cc3ccccc3nc2-1 ; param system: SK-OV-3; output GI50: 0.258 µM (active)
